experiment: Steady state kinetics of purified NTR, variable substrate CB1954
Format: biochemical
testConditions: variable substrate CB1954, fixed substrate NADH
This listing pairs molecules with measured Km.
Reply with just the number (in µM).

INSERT INTO assay_data (molecule, quantitativereadout) VALUES
  ('F124H: NTR mutant, phenylalanine 124 to histidine (protein) MDIISVALKRHSTKAFDASKKLTPEQAEQIKTLLQYSPSSTNSQPWHFIVASTEEGKARVAKSAAGNYVFNERKMLDASHVVVFCAKTAMDDVWLKLVVDQEDADGRFATPEAKAANDKGRKFHADMHRKDLHDDAEWMAKQVYLNVGNFLLGVAALGLDAVPIEGFDAAILDAEFGLKEKGYTSLVVVPVGHHSVEDFNATLPKSRLPQNITLTEV', 526);

Kindly consider the entry below.
Data point: F124K: NTR mutant, phenylalanine 124 to lysine (protein) MDIISVALKRHSTKAFDASKKLTPEQAEQIKTLLQYSPSSTNSQPWHFIVASTEEGKARVAKSAAGNYVFNERKMLDASHVVVFCAKTAMDDVWLKLVVDQEDADGRFATPEAKAANDKGRKFKADMHRKDLHDDAEWMAKQVYLNVGNFLLGVAALGLDAVPIEGFDAAILDAEFGLKEKGYTSLVVVPVGHHSVEDFNATLPKSRLPQNITLTEV ; Km = 371

Data credit: patent US20050013808A1
